These data points were gathered from patent US20240261333A1.

- tested target: T1, B3GNT2 (Homo sapiens, UniProt Q9NY97)
- T1 construct: The respective ORFs of candidate genes [CD274 (NM_014143), MCL1 (NM_021960), JUNB (NM_002229), and B3GNT2 (NM_006577)] were synthesized; expressed in transfected cells; host or cells: A375 melanoma cells (lentiviral ORF overexpression)
- T1 sequence (Q9NY97 1-397): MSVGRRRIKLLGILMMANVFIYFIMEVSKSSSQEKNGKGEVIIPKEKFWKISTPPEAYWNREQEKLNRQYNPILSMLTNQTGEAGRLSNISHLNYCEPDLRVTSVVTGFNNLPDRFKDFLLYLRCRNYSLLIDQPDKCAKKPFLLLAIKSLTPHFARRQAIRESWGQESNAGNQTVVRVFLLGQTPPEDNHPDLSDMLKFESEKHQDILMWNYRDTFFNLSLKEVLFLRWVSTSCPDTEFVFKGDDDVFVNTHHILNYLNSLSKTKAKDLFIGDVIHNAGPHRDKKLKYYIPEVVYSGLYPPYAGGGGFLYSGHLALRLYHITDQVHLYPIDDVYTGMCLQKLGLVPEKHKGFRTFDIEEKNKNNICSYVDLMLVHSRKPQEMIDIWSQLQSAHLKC
- assay details: Co-IP of FLAG-tagged B3GNT2 followed by mass spectrometry
- Assay type: cell-based
- setup conditions: Co-IP with FLAG antibody, N-terminally FLAG-tagged B3GNT2; mass spectrometry count, unit not given
Could you please report measured N-term FLAG for the items listed next?
Answer as a number with no unit attached.

Prompt: Report N-term FLAG for SLC25A5 (protein) TDAAVSFAKDFLAGGVAAAISKTAVAPIERVKLLLQVQHASKQITADKQYKGIIDCVVRIPKEQGVLSFWRGNLANVIRYFPTQALNFAFKDKYKQIFLGGVDKRTQFWLYFAGNLASGGAAGATSLCFVYPLDFARTRLAADVGKAGAEREFRGLGDCLVKIYKSDGIKGLYQGFNVSVQGIIIYRAAYFGIYDTAKGMLPDPKNTHIVISWMIAQTVTAVAGLTSYPFDTVRRRMMMQSGRKGTDIMYTGTLDCWRKIARDEGGKAFFKGAWSNVLRGMGGAFVLVLYDEIKKYT please.
Response: 19

Prompt: Report N-term FLAG for DNAJB11 (protein) GRDFYKILGVPRSASIKDIKKAYRKLALQLHPDRNPDDPQAQEKFQDLGAAYEVLSDSEKRKQYDTYGEEGLKDGHQSSHGDIFSHFFGDFGFMFGGTPRQQDRNIPRGSDIIVDLEVTLEEVYAGNFVEVVRNKPVARQAPGKRKCNCRQEMRTTQLGPGRFQMTQEVVCDECPNVKLVNEERTLEVEIEPGVRDGMEYPFIGEGEPHVDGEPGDLRFRIKVVKHPIFERRGDDLYTNVTISLVESLVGFEMDITHLDGHKVHISRDKITRPGAKLWKKGEGLPNFDNNNIKGSLIITFDVDFPKEQLTEEAREGIKQLLKQGSVQKVYNGLQGY please.
Response: 3
